The values you see were collected from ChEMBL document CHEMBL1275364.

# METHOD_NOTES: Half life in Sprague-Dawley rat at 1 mg/kg, iv
# Assay type: ADME, organism-based
# Set-up: dose 1 mg/kg, route intravenous
# ASSAY_SETUP: in vivo
REPORTED_METRIC: half-life (h)
State the answer as a number, implicitly in h.

Ask | So what does the record say about half-life for CNCCC(c1ccccc1)c1ccc(O)c2ccc(OCCN3CCCC3)cc12 (stereo unspecified) ?
Reply | 12

---

# METHOD_NOTES: Plasma concentration in Sprague-Dawley rat osteoarthritis model at 10 mg/kg, ip after 45 mins
# Assay type: ADME, organism-based
# Design: dose 10 mg/kg, route intraperitoneal
REPORTED_METRIC: concentration at 0.75 h
Report as: number unit

Ask | Entry under review: CNCCC(c1ccccc1)c1ccc(O)c2ccc(OCCN3CCCC3)cc12 (stereo unspecified) . Reported concentration at 0.75 h?
Reply | 1240 ng/mL
